Values compiled from patent US8927588B2.

targetOfAssay: ParE of Haemophilus influenzae (Haemophilus influenzae, UniProt P43703)
Sequence (P43703 whole entry): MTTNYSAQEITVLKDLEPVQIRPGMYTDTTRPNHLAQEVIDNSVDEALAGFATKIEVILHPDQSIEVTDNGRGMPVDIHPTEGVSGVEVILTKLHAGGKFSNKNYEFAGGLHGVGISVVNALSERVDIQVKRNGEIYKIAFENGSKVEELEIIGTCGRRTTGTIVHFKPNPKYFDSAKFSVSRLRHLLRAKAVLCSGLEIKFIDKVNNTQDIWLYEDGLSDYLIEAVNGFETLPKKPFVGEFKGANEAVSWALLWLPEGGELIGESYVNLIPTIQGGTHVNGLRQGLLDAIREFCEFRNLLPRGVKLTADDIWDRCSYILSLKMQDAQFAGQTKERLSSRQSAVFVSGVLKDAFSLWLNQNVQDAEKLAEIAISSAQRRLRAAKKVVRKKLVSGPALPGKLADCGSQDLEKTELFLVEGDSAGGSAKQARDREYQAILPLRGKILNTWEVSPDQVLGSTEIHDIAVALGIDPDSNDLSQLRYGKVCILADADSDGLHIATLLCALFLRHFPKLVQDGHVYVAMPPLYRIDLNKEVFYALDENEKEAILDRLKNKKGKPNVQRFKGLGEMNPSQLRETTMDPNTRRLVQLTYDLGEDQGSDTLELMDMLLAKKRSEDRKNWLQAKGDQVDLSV
recordedMetric: IC50 (nM)

CO[C@H]1CN(c2nc3cccc(C(=O)O)c3s2)CC[C@H]1NC(=O)c1nc(Cl)c(C)[nH]1 (racemic) : 131

----------
methodSummary: Solubility in water (JP1 fluid / JP2 fluid)
Assay type: physicochemical
conditions: pH 1.2, simulated gastric fluid, thermodynamic from solid; 1st fluid for the disintegration test of the Japanese Pharmacopoeia, room temperature; read-out: solubility in JP1 fluid
recordedMetric: solubility (µg/mL)

CO[C@H]1CN(c2nc3cccc(C(=O)O)c3s2)CC[C@H]1NC(=O)c1nc(Cl)c(C)[nH]1 (racemic) : 100

----------
methodSummary: Solubility in water (JP1 fluid / JP2 fluid)
Format: physicochemical
conditions: pH 6.8, aqueous buffer, thermodynamic from solid; 2nd fluid for the disintegration test of the Japanese Pharmacopoeia, room temperature; read-out: solubility in JP2 fluid
recordedMetric: solubility (µg/mL)

CO[C@H]1CN(c2nc3cccc(C(=O)O)c3s2)CC[C@H]1NC(=O)c1nc(Cl)c(C)[nH]1 (racemic) : 720
